Record set of MIC for target or system A. calcoaceticus 15473A.
Unit µg/mL implied. Number only.

Incoming: What measured MIC is associated with Cc1c(N)nc(SCC2=C(C(=O)[O-])N3C(=O)C(NC(=O)/C(=N\OC(C(=O)O)c4ccc(O)c(O)c4)c4csc(N)n4)[C@H]3SC2)[n+](N)c1N (stereo partly drawn) on A. calcoaceticus 15473A?
Outgoing: 0.5

Incoming: Now this one: C[n+]1cc(C(=O)O)c(N)nc1SCC1=C(C(=O)[O-])N2C(=O)C(NC(=O)/C(=N\OC(C(=O)O)c3ccc(O)c(O)c3)c3csc(N)n3)[C@H]2SC1 (stereo partly drawn)
Outgoing: 0.5

Incoming: Now this one: C[n+]1c(N)cc(N)nc1SCC1=C(C(=O)[O-])N2C(=O)C(NC(=O)C(=NOC(C(=O)O)c3ccc(O)c(O)c3)c3csc(N)n3)C2SC1 (stereo not drawn)
Outgoing: 0.5
